- Measurement target: Indoleamine 2,3-dioxygenase 1 (Homo sapiens, UniProt P14902)
- Sequence (P14902 whole entry): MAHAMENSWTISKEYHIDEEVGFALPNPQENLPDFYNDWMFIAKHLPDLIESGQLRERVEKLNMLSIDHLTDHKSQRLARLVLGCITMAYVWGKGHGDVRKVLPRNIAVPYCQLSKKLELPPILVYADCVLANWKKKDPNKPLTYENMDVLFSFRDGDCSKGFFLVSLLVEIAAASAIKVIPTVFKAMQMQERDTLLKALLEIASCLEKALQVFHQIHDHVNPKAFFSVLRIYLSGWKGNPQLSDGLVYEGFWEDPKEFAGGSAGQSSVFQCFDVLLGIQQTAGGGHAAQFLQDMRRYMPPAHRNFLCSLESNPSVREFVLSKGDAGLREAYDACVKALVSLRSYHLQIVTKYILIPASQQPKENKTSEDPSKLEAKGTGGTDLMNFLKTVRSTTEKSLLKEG
- Procedure summary: Inhibition of recombinant human IDO1 expressed in Escherichia coli EC538 assessed as reduction in N-formylkynurenine formation using L-tryptophan as substrate incubated for 30 mins by methylene blue reagent based assay
Measurement kind: IC50 (µM)
Numeric answer only, unit µM assumed.

Query string: Lab note: need IC50 for Fc1ccc2c(/C=C/c3cccnc3)c[nH]c2c1 on Indoleamine 2,3-dioxygenase 1 (Homo sapiens, UniProt P14902), anyone have it?
Result string: 350

* * *

- Measurement target: Tryptophan 2,3-dioxygenase (Homo sapiens, UniProt P48775)
- Sequence (P48775 whole entry): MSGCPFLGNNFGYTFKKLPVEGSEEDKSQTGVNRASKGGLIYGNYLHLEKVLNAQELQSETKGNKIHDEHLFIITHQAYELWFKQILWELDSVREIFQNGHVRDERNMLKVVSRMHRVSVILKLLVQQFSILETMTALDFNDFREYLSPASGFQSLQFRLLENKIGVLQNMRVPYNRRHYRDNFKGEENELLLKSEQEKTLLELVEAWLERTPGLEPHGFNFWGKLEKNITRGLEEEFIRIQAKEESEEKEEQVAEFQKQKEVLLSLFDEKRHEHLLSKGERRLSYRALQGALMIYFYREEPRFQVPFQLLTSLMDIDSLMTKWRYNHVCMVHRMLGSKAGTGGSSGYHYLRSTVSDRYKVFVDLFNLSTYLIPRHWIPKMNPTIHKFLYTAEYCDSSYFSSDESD
- Procedure summary: Inhibition of recombinant human TDO2 expressed in Escherichia coli BL21 (DE3) assessed as reduction in N-formylkynurenine formation using L-tryptophan as substrate incubated for 30 mins by methylene blue reagent based concurrent assay
Measurement kind: IC50 (µM)
Return type: number; implicit unit µM.

| Compound structure | Measurement target | U | IC50 |
| --- | --- | --- | --- |
| Cc1cc(=O)n2c3c(c4c(cc13)c(CN(C)C)cc(=O)n4C)OC2 | Tryptophan 2,3-dioxygenase (Homo sapiens, UniProt P48775) | µM | 17.6 |
| O=[N+]([O-])c1cc([N+](=O)[O-])c2cccnc2c1O | Tryptophan 2,3-dioxygenase (Homo sapiens, UniProt P48775) | µM | 22.7 |
| Nc1nonc1C(=NO)Nc1ccc(F)c(Cl)c1 | Tryptophan 2,3-dioxygenase (Homo sapiens, UniProt P48775) | µM | 3.62 |
| NS(=O)(=O)NCCNc1nonc1C(=NO)Nc1ccc(F)c(Br)c1 | Tryptophan 2,3-dioxygenase (Homo sapiens, UniProt P48775) | µM | 3.43 |

Query string: So what does the record say about IC50 for Oc1ccccc1-c1nc2c3ccccc3c3ccccc3c2[nH]1 ?
Result string: 12.3
